Reference source for all entries: paper PMC6385122

Would you mind telling me the reported pIC50 of each entry?
Molecular target: NE reuptake (NE transporter) (Rattus norvegicus, UniProt Q63380)
Construct: crude synaptosomal supernatant)
Sequence (Q63380 1-617): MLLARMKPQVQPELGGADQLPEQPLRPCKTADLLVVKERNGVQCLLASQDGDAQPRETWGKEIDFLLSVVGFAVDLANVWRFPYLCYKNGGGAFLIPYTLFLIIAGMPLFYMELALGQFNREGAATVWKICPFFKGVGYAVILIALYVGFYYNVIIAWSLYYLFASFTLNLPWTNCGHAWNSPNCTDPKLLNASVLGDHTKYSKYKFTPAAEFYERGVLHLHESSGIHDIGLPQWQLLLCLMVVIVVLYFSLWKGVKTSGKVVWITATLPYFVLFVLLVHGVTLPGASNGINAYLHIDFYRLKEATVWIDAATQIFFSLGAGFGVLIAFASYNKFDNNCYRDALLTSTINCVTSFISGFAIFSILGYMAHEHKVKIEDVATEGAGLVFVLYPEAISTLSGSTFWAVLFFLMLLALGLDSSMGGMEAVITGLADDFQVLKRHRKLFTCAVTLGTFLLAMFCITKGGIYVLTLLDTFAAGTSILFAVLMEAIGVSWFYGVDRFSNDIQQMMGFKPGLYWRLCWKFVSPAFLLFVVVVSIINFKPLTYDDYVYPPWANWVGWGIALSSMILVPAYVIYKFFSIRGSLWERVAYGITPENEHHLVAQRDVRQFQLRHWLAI
Test: Inhibition of NE reuptake in rat brain synaptosome (3H-NE uptake)
# pIC50 is unitless: minus log10 of the molar concentration; print number only

Reported pIC50 of Clc1ccccc1/C(=N\Cc1cccc2ccccc12)N1CCNCC1 [II-5] : 8.00

Reported pIC50 of Fc1ccccc1/C(=N\Cc1cccc2ccccc12)N1CCNCC1 [II-4] : 6.06

Reported pIC50 of N#Cc1cccc(/C(=N\Cc2ccc(Cl)cc2)N2CCNCC2)c1 [Compound I-19] : 6.25
